# System: 996289-038-R-J1-PDC complex spheroid viability
# test.name: Anticancer human tumor 996289-038-R-J1-PDC patient-derived colon adenocarcinoma cell line growth inhibition [CLK]
# condition.notes: second compound 10 µM; first compound 0.03 µM; hits give low values
Binarize viability, T/C at 1%; below is 1, at or above is 0.

# TODO verify viability, T/C < 1% strictly for this molecule: NC(=O)C(=Cn1cnc(-c2cc(C(F)(F)F)cc(C(F)(F)F)c2)n1)c1cncnc1 + CNC(=O)c1ccc(Nc2nc(OC3CCCC3)c3c(-c4ccc5nc(C)oc5c4)c[nH]c3n2)c(OC)c1
0

Say whether its viability, T/C is strictly beneath 1%. Entry: C=CC(=O)Nc1cc(Nc2nccc(-c3cn(C)c4ccccc34)n2)c(OC)cc1N(C)CCN(C)C + CN1CCN(c2cc(C(=O)Nc3cc4cc(-c5cnn(C)c5)ccc4cn3)ccn2)CC1
0

# check: viability, T/C < 1% for C=CC(=O)Nc1cc(Nc2nccc(-c3cn(C)c4ccccc34)n2)c(OC)cc1N(C)CCN(C)C + CNC(=O)c1ccc(Nc2nc(OC3CCCC3)c3c(-c4ccc5nc(C)oc5c4)c[nH]c3n2)c(OC)c1
0

Answer whether the molecule CC(C)CC(NC(=O)C(Cc1ccccc1)NC(=O)c1cnccn1)B(O)O (stereo unspecified) + CNC(=O)c1ccc(Nc2nc(OC3CCCC3)c3c(-c4ccc5nc(C)oc5c4)c[nH]c3n2)c(OC)c1 has viability, T/C strictly less than 1%
1

Could you please tell me whether viability, T/C recorded for CC(C)CC(NC(=O)C(Cc1ccccc1)NC(=O)c1cnccn1)B(O)O (stereo unspecified) + CN1CCN(c2cc(C(=O)Nc3cc4cc(-c5cnn(C)c5)ccc4cn3)ccn2)CC1 is less than 1%?
0

Strictly below 1%: is that where viability, T/C of NC(=O)C(=Cn1cnc(-c2cc(C(F)(F)F)cc(C(F)(F)F)c2)n1)c1cncnc1 + CN1CCN(c2cc(C(=O)Nc3cc4cc(-c5cnn(C)c5)ccc4cn3)ccn2)CC1 sits?
1

* * *

# System: 996289-038-R-J1-PDC complex spheroid viability
# test.name: Anticancer human tumor 996289-038-R-J1-PDC cell line growth inhibition [CLK]; active = viability on the fitted dose curve at most 10% of control; inactive = the rest;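 also: spheroids exposed to the agents for 7 days before readout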
# condition.notes: second compound 3.16 µM; first compound 0.00949 µM
Respond only with the outcome that fits, drawn from 1 for active, -1 for inactive

# fetch the recorded call for C=CC(=O)Nc1cc(Nc2nccc(-c3cn(C)c4ccccc34)n2)c(OC)cc1N(C)CCN(C)C + CN1CCN(c2cc(C(=O)Nc3cc4cc(-c5cnn(C)c5)ccc4cn3)ccn2)CC1 here
1

Hi team, can someone confirm the assay call for CC(C)CC(NC(=O)C(Cc1ccccc1)NC(=O)c1cnccn1)B(O)O (stereo unspecified) + CNC(=O)c1ccc(Nc2nc(OC3CCCC3)c3c(-c4ccc5nc(C)oc5c4)c[nH]c3n2)c(OC)c1 ?
1

// return assay outcome for NC(=O)C(=Cn1cnc(-c2cc(C(F)(F)F)cc(C(F)(F)F)c2)n1)c1cncnc1 + CN1CCN(c2cc(C(=O)Nc3cc4cc(-c5cnn(C)c5)ccc4cn3)ccn2)CC1
1

Hey, what did the test say about C=CC(=O)Nc1cc(Nc2nccc(-c3cn(C)c4ccccc34)n2)c(OC)cc1N(C)CCN(C)C + CNC(=O)c1ccc(Nc2nc(OC3CCCC3)c3c(-c4ccc5nc(C)oc5c4)c[nH]c3n2)c(OC)c1 ?
-1

Just curious, what result did NC(=O)C(=Cn1cnc(-c2cc(C(F)(F)F)cc(C(F)(F)F)c2)n1)c1cncnc1 + CNC(=O)c1ccc(Nc2nc(OC3CCCC3)c3c(-c4ccc5nc(C)oc5c4)c[nH]c3n2)c(OC)c1 get here?
-1

Each compound tested received a call. Report the one for CC(C)CC(NC(=O)C(Cc1ccccc1)NC(=O)c1cnccn1)B(O)O (stereo unspecified) + CN1CCN(c2cc(C(=O)Nc3cc4cc(-c5cnn(C)c5)ccc4cn3)ccn2)CC1 .
1

The measurements presented in this section are drawn from PubChem BioAssay AID2060600.
